apparent KD of MS2 coat protein listing for selected sequences.
- System: MS2 coat protein
- test.details: apparent KD of MS2 coat protein; higher = weaker reporter binding
- reported.conditions: Eterna round: R107; input ligand: theophylline 20 uM
recorded.endpoint: apparent KD of MS2 coat protein (nM)

input.sequence: UGGCAAGAGGGAAGGAGCGUCAGCUGAGUCACAUGAGGAUCACCCAUGUAGCACAUAGUGUGACAGGUAGGUCGCCCUCUGCCGU [SS-ArgB10]
recorded.endpoint: apparent KD of MS2 coat protein
endpoint.result: 10.1
//
input.sequence: ACAUUAGUUGGCGAUACCAGCUAUAGGCCUUCUGGGCGACAUGAGGAUCACCCAUGUGAUGGCCCUUGGCAGCGCUGAUUGAUGU [SSTheo B #29]
recorded.endpoint: apparent KD of MS2 coat protein
endpoint.result: 167
//
input.sequence: UAUCCACAUGAGGAUCACCCAUGUUAGGAAGGAGCGGUGAAUGAACCAGGUAGGUCGCCUAGGUGAGGAUCAUCUAUGGAUUCGU [Exclusion - Arginine A (Freestyle 11)]
recorded.endpoint: apparent KD of MS2 coat protein
endpoint.result: 37.3
//
input.sequence: AACUGGAUCAGUGAUACCAGAGACAUGAGGAUCACCCAUGUACAUGAGGAUCACCCAUGUCUCCCUUGGCAGCACAGCAGGGAGC [Exclusion Theophylline B GF 17]
recorded.endpoint: apparent KD of MS2 coat protein
endpoint.result: 70.3
//
input.sequence: GAUCUGUCGGGUGAUACCAGCCUCGGCGCGUCUCGCGCUGAACAUGAGGAUCACCCAUGUGGCCCUUGGCAGCACAUGACAAAUC [Ditere]
recorded.endpoint: apparent KD of MS2 coat protein
endpoint.result: 488
//
input.sequence: CCUCGAUUUUGAUACCGAUAUGUCUUUGAUACCAGCGCCAUAGUACGCCCUUGGCAGCAAGAAACAUGAGGAUCACCCAUGUUAA [theeternabot_exclusion_MS2_Theo_A_36]
recorded.endpoint: apparent KD of MS2 coat protein
endpoint.result: 26.4

----------
- System: MS2 coat protein
- test.details: apparent KD of MS2 coat protein; higher = weaker reporter binding
- reported.conditions: Eterna round: R101; input ligand: none
recorded.endpoint: apparent KD of MS2 coat protein

input.sequence: ACUUUAUUUGAGAAGGUGAAGUGGAAACAUGAGGAUCACCCAUGUAAUACGAAGCGUAUUUUUAUCAAGGAUAUCAAAUAAAGA [WHB=ISS-NG2-MS2FAR3 #bad] (puzzle (switch architecture): Inverted Same State NG 2)
recorded.endpoint: apparent KD of MS2 coat protein
endpoint.result: 10.7 nM
--
input.sequence: GGUACUCAAAGAGUACCAAUACGAACAUGAGGAUCACCCAUGUAGGAUAUGCUACUCAAAGAGUAGCAGAAGGACAUGUGCCUU [salish99_ExNG3_020 #endbits investigation] (puzzle (switch architecture): Exclusion NG 3)
recorded.endpoint: apparent KD of MS2 coat protein
endpoint.result: 15.1 nM
--
input.sequence: AAUAAAACUCAAGGAUAUGACUCCGAAACGGAGUCAGAAGGUGAGGAUCACCCACCUAGCUCAGCGUCGAAAGACGCUGAGCAA [#SharedSequence ExNG1 - 32] (puzzle (switch architecture): Exclusion NG 1)
recorded.endpoint: apparent KD of MS2 coat protein
endpoint.result: 9.01 nM
--
input.sequence: AAAUAAAUCGAAGGAUAUCAGGGUGCACCUCAGUAAAACUGAGGUGCACCCUGAGAAGGUCGAGGAUCACCCGAUCUAAAUAAA [#SharedSequence SLExNG1: 2-2] (puzzle (switch architecture): Small Loop Exclusion NG 1)
recorded.endpoint: apparent KD of MS2 coat protein
endpoint.result: 19.3 nM
--
input.sequence: AAAUAACUUGAAGGAUAUGACCCUCGAGGUGACUAAAAGUCACCUCGAGGGUCAGAAGGUCGAGGAUCACCCGACCUAGUGAAA [#SharedSequence SLExNG1: 7-1] (puzzle (switch architecture): Small Loop Exclusion NG 1)
recorded.endpoint: apparent KD of MS2 coat protein
endpoint.result: 7.54 nM
--
input.sequence: CAAUUGGCACAGAAGGGUGACAUGAGGAUCACCCAUGUAGCGUGGCAUUCAGGAAGAGCCACGCCACAGGAUAUGUGCGGGCAC [Rigeri] (puzzle (switch architecture): Inverted Same State NG 2)
recorded.endpoint: apparent KD of MS2 coat protein
endpoint.result: 24.7 nM
--
input.sequence: CCUGCACCUCAAGGAUAUCCAGUCGUUUCGACUGGAGAAGGUGAGGAUCACCCACCUAGCCUGACGUUUGUCAGGCAUGCAGGU [#AddUracilToBrourdLoops 1 - Jieux - Exclusion NG1] (puzzle (switch architecture): Exclusion NG 1)
recorded.endpoint: apparent KD of MS2 coat protein
endpoint.result: 27 nM
--
input.sequence: AAAGAUUUUCAAGGAUAUCAGUGGCAAAGCCACUGAGAAGGUGAGGAUCACCCACCUACGUGACGCUGGAAACAGCGUCACGAA [#SharedSequence ExNG1 - 26] (puzzle (switch architecture): Exclusion NG 1)
recorded.endpoint: apparent KD of MS2 coat protein
endpoint.result: 21 nM
--
input.sequence: AAUAAACAAUAAAAGAGUCCACGAAACUUUUGAGGAUCACCCAGAAGGGCUGAGGUAAUACCUCAGCAGGAUAUGGACGUGGAC [#SharedSequence IExNG# - 3] (puzzle (switch architecture): Inverted Exclusion NG 3)
recorded.endpoint: apparent KD of MS2 coat protein
endpoint.result: 12.4 nM
--
input.sequence: AGACCUGCUCAGAAGGCGUGUGCGAGGCUGGAAACAGCCUCGAAUUAAAAUCUUCGAGGAUCACCCGAGGAUAUGAGCAGGUCA [#SharedSequence - IExNG2: 20] (puzzle (switch architecture): Inverted Exclusion NG 2)
recorded.endpoint: apparent KD of MS2 coat protein
endpoint.result: 11.3 nM
--
input.sequence: GUAGCUAUCGGAGGAUAUUCAUACCGGAAACGGACAUGAGGAUCACCCAUGUGGCGAAAGCCUUGGGAGAAGGCCGAUAGCUAC [#DoubleMagnetSystem - jl-sng2-2.23 Eli mod] (puzzle (switch architecture): Same State NG 2)
recorded.endpoint: apparent KD of MS2 coat protein
endpoint.result: 215 nM
--
input.sequence: UCAGUAGAGUCAGGAUAUACAAAAGGCGGUCCAUACAUGAGGAUCACCCAUGUAGAAGGGACUCUACUGUAAGUCGGAAACGAC [#StaticStemDeletion - Eli x2 4.005] (puzzle (switch architecture): Small Loop Exclusion NG 1)
recorded.endpoint: apparent KD of MS2 coat protein
endpoint.result: 329 nM
--
input.sequence: GUGCCUUGGGAGAAGGAUAAUUAAUAAUAAAUAAAAGGAUAUUCAUACCGGAAACGGACAUGAGGAUCACCCAUGUGGCACAAA (puzzle (switch architecture): Inverted Same State NG 1)
recorded.endpoint: apparent KD of MS2 coat protein
endpoint.result: 186 nM
--
input.sequence: UUAUAAUUAAGAGGAUAUAUACAACAUGAGGAUCACCCAUGUACCCAUGUAGUAGAAGGCUUAUUUUUAUAUAAUAAUAUAAUU [AstrosLoopssng1#9] (puzzle (switch architecture): Small Loop Same State NG 1)
recorded.endpoint: apparent KD of MS2 coat protein
endpoint.result: 148 nM
--
input.sequence: CUUAGUUUGUAGAAGGGUGACAUGAGGAUCACCCAUGUGCGUCGCCUGAAAGACCAGGGUACGCCACAGGAUAUACAAAGUAAG [Ororzati] (puzzle (switch architecture): Inverted Same State NG 2)
recorded.endpoint: apparent KD of MS2 coat protein
endpoint.result: 58 nM
--
input.sequence: UUAUUAUGUGUAGGAUAUGCGUAUUAUUAUUAUGCAGAAGGACAUGAGGAUCACCCAUGUAUAUUAUUAUUAUAUAUUAUAUAU (puzzle (switch architecture): Exclusion NG 1)
recorded.endpoint: apparent KD of MS2 coat protein
endpoint.result: 14.7 nM
--
input.sequence: UAUUAUAUAUAGAAGGACAUGAGGAUCACCCAUGUCGCCGGGCCCGGGAAACCGGGCCCGGCCAUGUAGGAUAUAUAUAUAGUA [#This is a good prank 9] (puzzle (switch architecture): Inverted Exclusion NG 2)
recorded.endpoint: apparent KD of MS2 coat protein
endpoint.result: 5.35 nM

----------
- Test system: MS2 coat protein
- test.details: apparent KD of MS2 coat protein; designed switch direction (-1 OFF switch, 1 ON switch): 1; higher = weaker reporter binding
- reported.conditions: input ligand: microRNA oligo, concentration not stated
recorded.endpoint: apparent KD of MS2 coat protein (nM)

input.sequence: UGCUAGGAUAUCUUGAGGAUCACCCAGGAGAAGGAGUAAAGUUAGGAUAUCCUGAGGAUCACCCAGGAGAAGGAGCACAUACUC [pwkr ssNG3 DX 2xF5 +2xFMN.14] (Eterna round: R96, puzzle: Same State NG 3)
endpoint.result: 79.8
//
input.sequence: AAAACAUGACGAGGAUAUGGUACAUGAGGAUCACCCAUGUAUGUACCACGACGCGUACGUCGAAUCCAGAAGGCGUCGUGAAAA [Mat - Same State NG 2 - JL mod - D19] (Eterna round: R96, puzzle: Same State NG 2)
endpoint.result: 68.5
//
input.sequence: UAUGACUUACAAGGAUAUUAAUGACAUGAGGAUCACCCAUGUGGCUGUGUGUGUUAGAUAAGCUUUAAGAAGGUGUGCGUGUCU [JR_SSNG2_Sub096] (Eterna round: R96, puzzle: Same State NG 2)
endpoint.result: 288
//
input.sequence: CGCCAGAGAGCAGGAUAUGGGCCACAGCCUAAGGGCUGUGAACUCACAUGAGGAUCACCCAUGUCCCAGAAGGGCUCCUAGCUA [Erzabe] (Eterna round: R96, puzzle: Same State NG 2)
endpoint.result: 701
//
input.sequence: GGACGUCAUCUCACUGAUUAACAUGAGGAUCACCCAUGUUCACAGGAUAUGAGUCCGAUUAGGACUCAGAAGGGUGAGACGUCC [Fiskers NG3ss - 47] (Eterna round: R96, puzzle: Same State NG 3)
endpoint.result: 16.8
//
input.sequence: GUGGUCAGACAUGAGGAUCACCCAUGUGGAAUAAAUAACACACAGGAUAUCGAAUAUAAAAUAUACGAGAAGGGUGGAUUGGUG (Eterna round: R96, puzzle: Same State NG 3)
endpoint.result: 334
//
input.sequence: UUGCGGGCUUGAGGAUAUUGAGUACAUAUGUUUAACAUGAGGAUCACCCAUGUGGGUUGCGGUAUCGAGAAGGUAACUUCCUGC [salish99_SSNG2_r04_811] (Eterna round: R96, puzzle: Same State NG 2)
endpoint.result: 65.3
//
input.sequence: GGAGCCAAGGCAGGAUAUUCAUUUAAAUAAACAUGAGGAUCACCCAUGUAGGCCAGAAGGCCUUGGGAGAAGGGCCAUGGCUCG [Xeonanis - 13 mod7] (Eterna round: R96, puzzle: Same State NG 2)
endpoint.result: 72.8
//
input.sequence: UCUUGGUUUUUGCUCGUUUUUUGUGUUGAACAUGAGGAUCACCCAUGUAUUGUACAGUCCAAUUUGAUAAUGGUCCG [JMF 54] (Eterna round: R96, puzzle: Sensor for hsa-mir-208a)
endpoint.result: 28.1
